system: HCC70 cells; assay: Inhibition of cell proliferation, CyQUANT Direct, HCC70; format: cell-based, human; conditions: Homo sapiens; HCC70 triple negative breast cancer cells, 72-hour; read-out: HCC 70 proliferation calculated IC50
pIC50: −log10 of the molar value.
Give pIC50 for every item shown.

# compound, pIC50
records = [
    ("Cc1nsc(-c2ccc3c(-c4nc(N[C@H]5CCC[C@@H]5N)ncc4C(F)(F)F)c[nH]c3n2)n1", "5.70 to 6.30"),
    ("Cc1noc(C)c1-c1ccc2c(-c3nc(N[C@H]4CCC[C@H]4N4CC(F)C4)ncc3C(F)(F)F)c[nH]c2n1", "6.30 to 7.00"),
]

Quick one: give me pIC50 for each item below, same order please.
1. N#Cc1ccc2c(-c3nc(N[C@H]4CC[C@@H]4N)ncc3C(F)(F)F)c[nH]c2c1
2. Cc1noc(C)c1-c1ccc2c(-c3nc(N[C@H]4CCC[C@H]4N4CC(F)(F)C4)ncc3C(F)(F)F)c[nH]c2n1
3. COC1CN([C@@H]2CCC[C@@H]2Nc2ncc(C(F)(F)F)c(-c3c[nH]c4nc(-c5c(C)noc5C)ccc34)n2)C1
4. N#Cc1ccc2c(-c3nc(NC[C@@H]4COCCN4)ncc3C(F)(F)F)c[nH]c2c1
5. Cc1noc(C)c1-c1ccc2c(-c3nc(N[C@H]4CCCC4N4CCCC4)ncc3C(F)(F)F)c[nH]c2n1 (stereo partly drawn)
6. N#Cc1ccc2c(-c3nc(N[C@H]4CC[C@@H]4N4CCOCC4)ncc3C(F)(F)F)c[nH]c2c1
7. N#Cc1ccc2c(-c3nc(N[C@@H]4CNC[C@@H]4O)ncc3C(F)(F)F)c[nH]c2c1 (relative stereo)

stdout:
1. 6.30 to 7.00
2. < 5.70
3. < 5.70
4. < 5.70
5. 6.30 to 7.00
6. < 5.70
7. < 5.70

Quick one: give me pIC50 for each item below, same order please.
1. Cc1noc(C)c1-c1ccc2c(-c3nc(NC4CCCC4N)ncc3C(F)(F)F)c[nH]c2n1 (stereo not drawn)
2. N#Cc1ccc2c(-c3nc(N[C@H]4CCC[C@@H]4N4CCCC4)ncc3C(F)(F)F)c[nH]c2c1
3. N#Cc1ccc2c(-c3nc(N[C@H]4CNC[C@@H]4c4ccc(Cl)cc4)ncc3C(F)(F)F)c[nH]c2c1 (relative stereo)

stdout:
["> 7.00", "6.30 to 7.00", "< 5.70"]

Quick one: give me pIC50 for each item below, same order please.
1. Cc1noc(C)c1-c1ccc2c(-c3nc(NC4CC[C@@H]4N4CCCC4)ncc3C(F)(F)F)c[nH]c2n1 (stereo in doubt)
2. CCN[C@H]1CC[C@@H]1Nc1ncc(C(F)(F)F)c(-c2c[nH]c3cc(C#N)ccc23)n1

stdout:
1. > 7.00
2. 5.70 to 6.30
